Tested on: SN12C renal
Assay procedure: NCI tumour cell line growth inhibition, 48 h
Assay readout: TGI

Query: Which measured TGI value corresponds to "CCCCCCCCCCCCCCCCCCNC(=S)/N=C/c1c(O)c2ccccc2[nH]c1=O" ?
Response: 41 µM

Query: TGI; subject: COC(=O)C(Cc1ccc(N(C)C)cc1)(NC(=O)c1ccccc1)P(=O)(OC)OC (stereo not given)
Response: > 100 µM

Query: Which TGI value belongs to "Cc1nc2ccccn2c1NC(=O)NNC(=S)Nc1ccc(F)cc1" ?
Response: > 100 µM

Query: Endpoint output: TGI of O=C(OC1CN2CCC1CC2)N(c1ccccc1)c1ccccc1 (stereo not given) . Value?
Response: > 100 µM

Query: Recorded TGI for "CO/N=C(\C([O-])=N\[n+]1cnn(CC(=O)OC(C)(C)C)c1)c1csc(NC(c2ccccc2)(c2ccccc2)c2ccccc2)n1" , please?
Response: > 10 µM

Query: // TGI lookup, key: CC1(C)C2CCC1C(=O)[C@@]1(C=CC(=O)CC1)C2 (stereo not given in full)
Response: > 100 µM

Query: Consider the compound shown here: "O=C(C#Cc1ccccc1)C1=Cc2ccccc2OC1" What is its recorded TGI?
Response: > 100 µM

Query: What measured TGI goes with COc1ccc(NC(C(N)=O)c2cc3cc(Br)ccc3nc2Cl)cc1 (stereo not given) ?
Response: > 100 µM

Query: Find the recorded TGI belonging to CC1SC2(CCCCC2)N(NC(=O)CSc2nc3ccc(Cl)cc3c(=O)n2-c2ccccc2)C1=O (stereo not given) and report it.
Response: 32.5 µM

Query: I have this compound here, "CCC(CC)(CO)CNc1cc(Cl)nc(N)n1" , and I need its recorded TGI.
Response: > 100 µM

###

System: SW-620 colon
Assay procedure: NCI tumour cell line growth inhibition, 48 h
Assay readout: TGI

Query: Write down the reported TGI of "Cc1cc2n[n+]3[n-]cc(-c4ccccc4)n3c2cc1[N+](=O)[O-]" , test system: SW-620 colon.
Response: > 100 µM

Query: Write down the reported TGI of "O=C(c1ccccc1)c1c(C(F)(F)F)n([O-])c2cc(C(F)(F)F)ccc2[n+]1=O" , test system: SW-620 colon.
Response: 1.69 µM

Query: API: value(readout= TGI, system= SW-620 colon, query= COC(=O)C(CC(=O)Nc1ccc(Cl)c(Cl)c1)C(=O)C(=O)Nc1ccc(Cl)c(Cl)c1 (stereo unspecified) )
Response: > 100 µM

Query: Give SW-620 colon TGI for CC(C(=O)c1ccncc1)c1ccccn1 (stereo unspecified)
Response: > 100 µM

Query: Test system SW-620 colon; read-out TGI; what value for Cc1ccc(S(=O)(=O)N/N=C2\CC3CC4CCC2C4C3)cc1 (stereo unspecified) ?
Response: > 100 µM

Query: Hi! What's the reported TGI for "COC(=O)/C(C#N)=C(\N)C(Cl)(Cl)Cl" on SW-620 colon?
Response: 1.84 µM

Query: What reported TGI corresponds to CC(C(=O)c1ccccc1)C1(O)C(=O)Nc2ccc(Cl)cc21 (stereo unspecified) on SW-620 colon?
Response: > 100 µM

Query: Provide the documented TGI with SW-620 colon as the system for CCC1(OC(=O)CN)C(=O)OCc2c1cc1n(c2=O)Cc2cc3ccccc3nc2-1 (stereo unspecified)
Response: > 100 µM

Query: Form entry - test system: SW-620 colon; read-out: TGI; compound: "COc1cccc2cc(C(=O)Nc3ccccc3)c(=N)oc12"
Response: > 100 µM

Query: Item "CN(CCCNC(=O)c1nn(C)c2c1Cc1ccccc1-2)CCCNC(=O)c1nn(C)c2c1Cc1ccccc1-2" with SW-620 colon - TGI?
Response: 27.9 µM

Query: Recall the recorded TGI for COC(=O)c1cn(CC(O)CCl)nn1 (stereo unspecified) with SW-620 colon and state it.
Response: > 100 µM
